Reference for the values: PubChem BioAssay AID2060884

test system: NCI-H929 complex spheroids, viability % test/control; assay: Anticancer human tumor NCI-H929 cell line growth inhibition [RAS]; details: second compound 0.0949 µM; first compound 3.16 µM; hits give low values;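 also: compound exposure lasted seven days before viability was read; 100% = DMSO vehicle control viability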
reportedEndpoint: viability, T/C (%)
Numbers only, in %.

• NC1c2ccccc2OC12CCN(c1cnc3c(N4CCCc5ncccc54)n[nH]c3n1)CC2 (stereo not given) + CCn1c(-c2cc(N3CCN(C)CC3)cnc2C(C)OC)c2c3cc(ccc31)-c1csc(n1)CC(NC(=O)C1CC1C)C(=O)N1CCCC(N1)C(=O)OCC(C)(C)C2 = 1.88

For every item below, please supply its viability, T/C.
1. CCC(CC)c1cc(NC2CCC(N)C2)n2nccc2n1 (stereo not given) + CCn1c(-c2cccnc2C(C)OC)c2c3cc(ccc31)N1CCOC(CC(NC(=O)C(C(C)C)N(C)C(=O)C3(F)CCN(C(=O)C#CC(C)(C)N(C)C)CC3)C(=O)N3CCCC(N3)C(=O)OCC(C)(C)C2)C1
2. CC(=O)OC12COC1CC(O)C1(C)C(=O)C(O)C3=C(C)C(OC(=O)C(O)C(NC(=O)OC(C)(C)C)c4ccccc4)CC(O)(C(OC(=O)c4ccccc4)C21)C3(C)C (stereo not given) + CCn1c(-c2cccnc2C(C)OC)c2c3cc(ccc31)N1CCOC(CC(NC(=O)C(C(C)C)N(C)C(=O)C3(F)CCN(C(=O)C#CC(C)(C)N(C)C)CC3)C(=O)N3CCCC(N3)C(=O)OCC(C)(C)C2)C1

Result ::
1: 0.22; 2: 0.58

For every item below, please supply its viability, T/C.
1. NC1c2ccccc2OC12CCN(c1cnc3c(N4CCCc5ncccc54)n[nH]c3n1)CC2 (stereo not given) + CCn1c(-c2cccnc2C(C)OC)c2c3cc(ccc31)N1CCOC(CC(NC(=O)C(C(C)C)N(C)C(=O)C3(F)CCN(C(=O)C#CC(C)(C)N(C)C)CC3)C(=O)N3CCCC(N3)C(=O)OCC(C)(C)C2)C1
2. Cc1nc(N2CCC3(CC2)COC(C)C3N)c(CO)nc1Sc1ccnc(N)c1Cl (stereo not given) + CCn1c(-c2cccnc2C(C)OC)c2c3cc(ccc31)N1CCOC(CC(NC(=O)C(C(C)C)N(C)C(=O)C3(F)CCN(C(=O)C#CC(C)(C)N(C)C)CC3)C(=O)N3CCCC(N3)C(=O)OCC(C)(C)C2)C1

Result ::
1. 86.5
2. 98.2
